melting point: recorded values
Where a name gives a salt, the structure may show the parent alone.

Here are 2 compounds together with their reported answers.
compound | measurement
Fc1cccc([C@@H](Sc2ccccc2Cl)[C@H]2CNCCO2)c1 (single isomer, unassigned) (as salt: hydrochloride) | 183 to 187 °C
COc1ccccc1S[C@H](c1cccc(F)c1)[C@H]1CNCCO1 (single isomer, unassigned) (as salt: hydrochloride) | 233 to 234 °C

What does the record list as melting point for COc1ccccc1S[C@H](c1ccc(Cl)cc1)[C@H]1CNCCO1 (single isomer, unassigned) (as salt: hydrochloride) ?
238 to 241 °C

Can you look up the measured melting point of CCOc1ccccc1S[C@H](c1cccc(F)c1)[C@H]1CNCCO1 (single isomer, unassigned) (as salt: hydrochloride) for me?
211 to 215 °C
